Biological target: T1, Bfl-1, Q16548
T1 chain: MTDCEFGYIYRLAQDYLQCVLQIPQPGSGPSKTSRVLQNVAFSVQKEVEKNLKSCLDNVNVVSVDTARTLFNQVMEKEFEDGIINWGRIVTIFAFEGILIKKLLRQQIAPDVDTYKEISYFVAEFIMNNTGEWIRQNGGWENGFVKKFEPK
Assay: fluorescence polarisation, direct titration of receptor into 10 nM labelled peptide
readout type: Kd

EEIIHKLAMQLRHIGDNIDHRMVRED [PXT1] = 0.001 µM
VDSIRPKCQELRHLCDQFSAEIARRR [MCF2L] = > 4.1 µM
ISSYMVLAPVFGYLGDRYNRKYLMCG [SPNS1] = 0.278 µM

State its Kd: QRKHEGFERDLAALGDKVNSLGETAE [SPTAN1]
> 3.37 µM

State its Kd: RYRHGAPAEQLRHLADMLTTKWATLQ [PLEKHH1]
> 5.68 µM

State its Kd: KIETTPESRYLAQIGDSVSLTCSTTG [VCAM1]
> 3.37 µM

State its Kd: LCQLSCVSKLMRDVCGSLLQSRGMVI [FBXO30]
> 10 µM

Ref: paper PMC4072508
